Tested on: sicklepod (Cassia obtusifolia, CASOB)
assayName: Greenhouse herbicide screen, post-emerge application, phytotoxicity rating
Assay type: in vivo
reportedConditions: POST emergent, 250 g ai/ha, 14 days after application, scale 0-100
Protocol: A standard greenhouse herbicide activity screening system was used to evaluate the herbicidal efficacy and crop safety of these test compounds. […] At 14 days after application of the test materials, phytotoxicity ratings were recorded. […]
The reader will find reported phytotoxicity rating CASOB values listed item by item below.
metric: phytotoxicity rating CASOB

• Cn1c(C(F)(F)F)cc(=O)n(-c2cc(C(=O)NN=C(c3ccccc3)c3ccccc3)c(Cl)cc2F)c1=O = 75
• CC1CCCC(C)N1NC(=O)c1cc(-n2c(=O)cc(C(F)(F)F)n(C)c2=O)c(F)cc1Cl (stereo not drawn) = 99
• Cn1c(C(F)(F)F)cc(=O)n(-c2cc(C(=O)NN=C(C(C)(C)C)C(C)(C)C)c(Cl)cc2F)c1=O = 95
• CC1CCCC(C)N1N=C(OC(=O)C(Cl)Cl)c1cc(-n2c(=O)cc(C(F)(F)F)n(C)c2=O)c(F)cc1Cl (stereo not drawn) = 75
• CC(=O)OC(=NN(C)C)c1cc(-n2c(=O)cc(C(F)(F)F)n(C)c2=O)ccc1Cl = 98
• CN(N=C(C(C)(C)C)C(C)(C)C)C(=O)c1cc(-n2c(=O)cc(C(F)(F)F)n(C)c2=O)c(F)cc1Cl = 60

----------
System: redroot pigweed (Amaranthus retrofiexus, AMARE)
assayName: Greenhouse herbicide screen, pre-emerge application, phytotoxicity rating
Type: in vivo
reportedConditions: PRE emergent, 63 g ai/ha, 14 days after application, rating scale 0-100
metric: phytotoxicity rating AMARE

- CCOC(=O)NNC(=O)c1cc(-n2c(=O)cc(C(F)(F)F)n(C)c2=O)c(F)cc1Cl: 100
- Cn1c(C(F)(F)F)cc(=O)n(-c2cc(C(=O)NNC(=O)OC(C)(C)C)c(Cl)cc2F)c1=O: 80
- CC(=NNC(=O)c1cc(-n2c(=O)cc(C(F)(F)F)n(C)c2=O)c(F)cc1Cl)C(C)(C)C: 99
- Cn1c(C(F)(F)F)cc(=O)n(-c2cc(C(=O)NN=C(C(C)(C)C)C(C)(C)C)c(Cl)cc2F)c1=O: 100
- COC(=NN=C(C(C)(C)C)C(C)(C)C)c1cc(-n2c(=O)cc(C(F)(F)F)n(C)c2=O)c(F)cc1Cl: 100
- CC(=O)OC(=NN1C(C)CCCC1C)c1cc(-n2c(=O)cc(C(F)(F)F)n(C)c2=O)c(F)cc1Cl (stereo not drawn): 100

----------
Test system: redroot pigweed (Amaranthus retrofiexus, AMARE)
assayName: Greenhouse herbicide screen, post-emerge application, phytotoxicity rating
Assay type: in vivo
reportedConditions: POST emergent, 63 g ai/ha, 14 days after application, scale 0-100 (0 no damage, 100 complete death)
The reader will find reported phytotoxicity rating AMARE values listed item by item below.
metric: phytotoxicity rating AMARE

- Cn1c(C(F)(F)F)cc(=O)n(-c2cc(C(=O)NN=C(c3ccccc3)c3ccccc3)c(Cl)cc2F)c1=O [Compound 6-15]: 90
- CN(N=C(C(C)(C)C)C(C)(C)C)C(=O)c1cc(-n2c(=O)cc(C(F)(F)F)n(C)c2=O)c(F)cc1Cl [Compound 6-8]: 99
- CC(=O)OC(=NN1C(C)CCCC1C)c1cc(-n2c(=O)cc(C(F)(F)F)n(C)c2=O)c(F)cc1Cl (stereo not shown) [Compound 4-9]: 100
- CC1CCCC(C)N1NC(=O)c1cc(-n2c(=O)cc(C(F)(F)F)n(C)c2=O)c(F)cc1Cl (stereo not shown) [Compound 1-16]: 100
- CC(=NN=C(OS(C)(=O)=O)c1cc(-n2c(=O)cc(C(F)(F)F)n(C)c2=O)c(F)cc1Cl)C(C)(C)C [Compound 5-3]: 99
- CCOC(=O)NNC(=O)c1cc(-n2c(=O)cc(C(F)(F)F)n(C)c2=O)c(F)cc1Cl [Compound 1-23]: 100
- CC1CCCC(C)N1N=C(OC(=O)C(Cl)Cl)c1cc(-n2c(=O)cc(C(F)(F)F)n(C)c2=O)c(F)cc1Cl (stereo not shown) [Compound 4-8]: 100
